- assayProcedure: E. coli DRC41 culture turbidity changes, primary screen, E. coli filamentation inducer project, strain DRC41, OD650, 48 h (AID 1152);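 also: E. coli MC1000 strain DRC41 lacking acrAB efflux pump and sulA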
- appliedConditions: E. coli DRC41 (acrAB sulA), higher = more signal, called active from +8 up or from −8 down
fulfilled means recorded z-score is -0.8 or above; not fulfilled means it is below -0.8.

Some entries whose results are on file:
- CC(C)C(=C=CC[C@H](O)c1cccc(OCCO)c1)C[C@H](O)c1ccccn1: fulfilled
- O=C1OC[C@@H](c2ccccc2)n2cc(/C=C/c3ccccc3)cc21: fulfilled

Evaluate C=CCC(OC(C)=O)[C@@H]1[C@@H](N(Cc2ccc(-c3ccccc3)cc2)C(=O)Cc2ccc(OC)cc2)c2cc(OCCCO)ccc2N1C(=O)Cc1ccc(OC)cc1 (stereo partly specified) : z-score at minimum -0.8?
not fulfilled

Record COc1cccc(C)c1NC(=O)O[C@H]1[C@H](OC(=O)Nc2ccccc2-c2ccccc2)[C@@H](OC(=O)Nc2ccccc2-c2ccccc2)[C@@H](OC)O[C@@H]1CO ; criterion: z-score no lower than -0.8. Met?
not fulfilled

Reported z-score at or above -0.8? C=C[C@H](C)[C@@H](OC(=O)Nc1ccc(SC)cc1)c1ccc(OCCO)cc1
not fulfilled

Threshold query (z-score >= -0.8) on COCCOC(=O)N1C(=O)[C@@]2(c3cc(C#CCCO)ccc31)[C@H](C(=O)N1CCN(c3ncccn3)CC1)[C@H]1C(=O)O[C@H](c3ccccc3)[C@H](c3ccccc3)N1[C@@H]2c1ccc(OCCO)cc1
not fulfilled

Is z-score at least -0.8? Consider COc1ccc(C(O)C2C=CC3C(=O)N(C)C(=O)C3N2Nc2ccccc2)cc1 (stereo unspecified)
fulfilled

Given COc1cc2c(cc1OC)CN(C(=O)[C@@H]1[C@H]3C(=O)O[C@H](c4ccccc4)[C@H](c4ccccc4)N3[C@H](c3ccc(O)cc3)[C@@]13C(=O)Nc1ccc(C#CC4=CCCCC4)cc13)CC2 , state whether its z-score is at least -0.8.
fulfilled

Has C=C(C(=O)CC[C@@H](OC(=O)c1ccccc1-c1ccccc1C(=O)O)c1ccc(OCCO)cc1)C(C)C a recorded z-score greater than or equal to -0.8?
fulfilled

Item CCOC(=O)C=C1C[C@@H](c2cccc([N+](=O)[O-])c2)O[C@@H](c2cccc([N+](=O)[O-])c2)O1 with z-score of -0.8 or above?
fulfilled

----------
- Test system: Noggin (protein binding on small-molecule microarray)
- assayProcedure: Noggin binders on small-molecule microarray, primary screen, biochemical, 635/667 nm fluorescence (AID 1095);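 also: score merges 667 nm feature fluorescence with signal to noise over triplicate slides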
- appliedConditions: 635 nm fluorescence, higher = more signal
Think of -0.2 as a floor: if composite z-score stands on it or above, it is True; beneath it, False.

Below, 3 compounds whose answers are already recorded.
* O=C1N(Cc2ccccc2)c2ccccc2C[C@@]12N=C(c1ccc(OCCCO)cc1)O[C@H]2c1ccccc1 | True
* COc1ccc([Si](C)(C)[C@H]2[C@H](CCO)O[C@@]3(C(=O)N(Cc4ccccc4)c4ccc(NC(=O)[C@H](C)O)cc43)[C@@H]2C)cc1 | False
* CCCCN1CC=CC23O[C@@H]4/C=C\CCC(C)OC(=O)C4[C@H]2C(=O)N(CCO)[C@@H]3C1=O (some centres not stated) | True

Answer whether composite z-score of [N-]=[N+]=NCc1ccccc1[C@H]1OC(c2ccc(OCCCO)cc2)=N[C@@]1(CCS(=O)(=O)c1ccccc1)C(=O)O is greater than or equal to -0.2.
False

Item O=C1O[C@H](c2ccccc2)[C@H](c2ccccc2)N2[C@H]1[C@@H](C(=O)O)[C@]1(C(=O)Nc3ccc(C#CC4(O)CCCCCC4)cc31)[C@H]2c1ccccc1OCCO with composite z-score of -0.2 or above?
True

// inclusive: composite z-score at least -0.2? input: CCCC[C@@H](O)C1=C(C)Cn2c(=O)n(-c3ccccc3)c(=O)n2[C@H]1CO
True

Please check the record CCOC(=O)C=C1C[C@@H](c2cccc([N+](=O)[O-])c2)O[C@@H](c2cccc([N+](=O)[O-])c2)O1 and state if its composite z-score is at or above -0.2.
True

Hi, just wondering whether COc1ccc(C(=O)Nc2ccc(CN3C(=O)[C@]4(O[C@H](CC(=O)N(CCO)Cc5ccccc5)[C@@H]([Si](C)(C)c5ccc(OC)cc5)[C@@H]4C)c4ccccc43)cc2)cc1 shows composite z-score of -0.2 or higher.
True

Evaluate Cc1ccc(S[C@]2(C(=O)NCc3ccccc3)CC(=O)N(Cc3ccccc3C(F)(F)F)[C@@H]2c2ccc(CO)cc2I)cc1 : composite z-score at minimum -0.2?
False

# bool: composite z-score of CN1C(=O)C2C(C1=O)C1C=C(CCCO)C2C(C2CC2)N1C (configuration not stated) >= -0.2
False

Form field: composite z-score at least -0.2? Entry: CC(C)C[C@H]1NC(=O)CNC(=O)[C@@]23C(=O)N[C@@H](Cc4ccccc4)C2[C@H](C)[C@@]2(C)O[C@H]2C3/C=C/C/C=C\CNC1=O (some centres not stated)
True

Confirm if composite z-score reported for the compound CC(C)N1CC=CC23O[C@@H]4/C=C\CCCOC(=O)C4[C@H]2C(=O)N(C(C)CO)[C@@H]3C1=O (some centres not stated) is -0.2 or above.
False

----------
- Test system: Wnt5a (protein binding on small-molecule microarray)
- assayProcedure: Wnt5a binders on small-molecule microarray, primary screen, biophysical, 635/667 nm fluorescence (AID 1142);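 also: fluorescence read at 667 nm with signal to noise per printed feature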
- appliedConditions: 635 nm fluorescence, higher = more signal
readoutKind: composite z-score
Give bare numbers.

Known results for compounds:
* O=C(N1CCOCC1)[C@]1(CCS(=O)(=O)c2ccccc2)N=C(c2ccc(OCCCO)cc2)O[C@@H]1c1ccccc1 | 0.308
* COc1ccc(CCNC(=O)[C@@H]2c3ccccc3C(=O)N(Cc3cc(F)cc(C(F)(F)F)c3)[C@H]2c2ccc(CO)cc2)cc1 | 0.0093
* COc1ccc(C(=O)Nc2ccc(CN3C(=O)[C@@]4(O[C@@H](CC(=O)N(CCO)Cc5ccccc5)[C@H]([Si](C)(C)c5ccc(OC)cc5)[C@H]4C)c4ccccc43)cc2)cc1 | 0.353

Would you be so kind as to report composite z-score for each listed record?
1. COc1ccc([Si](C)(C)[C@H]2[C@H](CCO)O[C@@]3(C(=O)N(Cc4ccccc4)c4ccc(NC(=O)[C@H](C)O)cc43)[C@@H]2C)cc1
2. CC(C)C(=C=CC[C@H](O)c1cccc(OCCO)c1)C[C@H](O)c1ccccn1
3. CN(C)CCCCCCNC(=O)[C@@H]1C[C@@H]2C(=O)N[C@@H](CCCC[N+](C)(C)C)C(=O)N2[C@@H]1c1cccc(OCCO)c1

1. 0.571
2. -0.103
3. 0.144

----------
- subjectOfTest: Concanavalin-A (Canavalia ensiformis)
- assayProcedure: ConA small-molecule binders, primary screen, artefact control for SMM control protein annotation, biochemical, small-molecule microarray, Alexa647 label, 635 nm (AID 1127);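 also: z combines 667 nm emission intensity with signal-to-noise across three replicate slides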
- appliedConditions: ConA-A647 binding fluorescence, higher = more signal
Lab note: compare composite z-score against 0.8. Equal or greater, write yes (1). Smaller, write no (0).

Here are 3 compounds together with their reported answers.
- CC(C)C(=C=CC[C@H](O)c1cccc(OCCO)c1)C[C@H](O)c1ccccn1: no (0)
- Cc1ccc(N2C(=O)c3ccccc3[C@@H](C(=O)NCCN3CCOCC3)[C@@H]2c2ccc(CO)cc2)nc1: no (0)
- COC(=O)C(CC#Cc1ccc2c(c1)[C@]1(C(=O)N2)[C@H](c2ccccc2OCCO)N2[C@H](c3ccccc3)[C@H](c3ccccc3)OC(=O)[C@H]2[C@@H]1C(=O)N1CCN(c2ncccn2)CC1)C(=O)OC: yes (1)

// inclusive: composite z-score at least 0.8? input: CCOC(=O)C1=C[C@@H](C(C)(C)C)N(S(=O)(=O)c2ccc(C)cc2)[C@H]1c1ccc(OC)cc1
yes (1)

Would you say COCCOC(=O)N1C(=O)[C@@]2(c3cc(C#CCNC(N)=O)ccc31)[C@H](C(=O)Nc1nc3ccccc3s1)[C@H]1C(=O)O[C@H](c3ccccc3)[C@H](c3ccccc3)N1[C@@H]2c1ccc(O)cc1 shows composite z-score at minimum 0.8?
yes (1)

----------
- assayProcedure: anti-His antibody binders, primary screen, artefact control for SMM control protein annotation, biochemical, small-molecule microarray, 635 nm fluorescence (AID 1128);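 also: score merges feature fluorescence with signal-to-noise for each printed compound spot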
- appliedConditions: anti-His Alexa647 antibody binding, higher = more signal
readoutKind: composite z-score
One number for each entry.

// input: 3 compounds below; output: composite z-score for each
1. Cc1ccc(S[C@]2(C(=O)NCc3ccccc3)CC(=O)N(Cc3ccccc3Cl)[C@@H]2c2ccc(CO)cc2)cc1
2. CC(C)N1C(=O)[C@@]2(Cc3ccccc31)c1ccccc1C(=O)N(Cc1ccccc1C(F)(F)F)[C@H]2c1ccc(CO)cc1
3. CCOC(=O)C1=C[C@@H](C(C)(C)C)N(S(=O)(=O)c2ccc(C)cc2)[C@H]1c1ccc(OC)cc1

[1.29, 0.175, 0.772]
